B1: PPFIA4 (parent)
chain: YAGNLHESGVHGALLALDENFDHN

Variants of: B1
Assay: protein stability index of a GFP-peptide fusion (GPS, HEK-293T) (PSI 1-6); higher = more stable;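 note: lentivirally expressed fusions sorted by FACS into six bins by GFP to DsRed ratio, PSI derived from sequencing read proportions per bin multiplied by bin number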
Settings: c terminus: a fixed tail appended
property name: protein stability index

Param item = L14Q ; retrieve measured protein stability index. 4.02

Param item = S8G ; retrieve measured protein stability index. 2.12

Param item = E7S ; retrieve measured protein stability index. 2.58

Param item = L5W ; retrieve measured protein stability index. 3.46

Param item = G12L ; retrieve measured protein stability index. 2.73

Param item = E19D ; retrieve measured protein stability index. 2.6

Param item = A16W ; retrieve measured protein stability index. 3.58

Param item = N4W ; retrieve measured protein stability index. 1.67

Param item = L17P ; retrieve measured protein stability index. 3.35

Param item = G12K ; retrieve measured protein stability index. 2.97

Param item = A2P ; retrieve measured protein stability index. 3.96

Param item = L17V ; retrieve measured protein stability index. 2.47

Param item = E7D ; retrieve measured protein stability index. 3.14

Param item = N24M ; retrieve measured protein stability index. 1.92

Param item = G9H ; retrieve measured protein stability index. 2.65

Param item = L17H ; retrieve measured protein stability index. 4.06

Param item = A16N ; retrieve measured protein stability index. 3.23

Param item = L5P ; retrieve measured protein stability index. 2.94

Param item = G9R ; retrieve measured protein stability index. 2.31

Param item = H23I ; retrieve measured protein stability index. 2.23

Param item = V10T ; retrieve measured protein stability index. 3.09

Param item = A2W ; retrieve measured protein stability index. 3.26

Param item = G12T ; retrieve measured protein stability index. 3.22

Param item = Y1Q ; retrieve measured protein stability index. 4.64

Param item = G9D ; retrieve measured protein stability index. 3.69

Param item = N24Y ; retrieve measured protein stability index. 2.47

Param item = D18S ; retrieve measured protein stability index. 1.87

Param item = D18F ; retrieve measured protein stability index. 1.69

Param item = N20I ; retrieve measured protein stability index. 1.79

Param item = L15R ; retrieve measured protein stability index. 2.8

Param item = E7A ; retrieve measured protein stability index. 1.9

Param item = L15H ; retrieve measured protein stability index. 3.31

Param item = G12C ; retrieve measured protein stability index. 2.13

Param item = V10F ; retrieve measured protein stability index. 2.25

Param item = S8H ; retrieve measured protein stability index. 2.11

Param item = L17N ; retrieve measured protein stability index. 3.86

Param item = G3H ; retrieve measured protein stability index. 2.92

Param item = H6L ; retrieve measured protein stability index. 2.01

Param item = L17Q ; retrieve measured protein stability index. 3.37

Param item = Y1W ; retrieve measured protein stability index. 3.77

Param item = A16S ; retrieve measured protein stability index. 3.2

Param item = E7W ; retrieve measured protein stability index. 2.91

Param item = N4S ; retrieve measured protein stability index. 1.87

Param item = N20C ; retrieve measured protein stability index. 2.32

Param item = L15S ; retrieve measured protein stability index. 3.87

Param item = L5Q ; retrieve measured protein stability index. 2.94

Param item = L5I ; retrieve measured protein stability index. 1.94

Param item = D18E ; retrieve measured protein stability index. 2.82

Param item = G12D ; retrieve measured protein stability index. 3.74

Param item = A13E ; retrieve measured protein stability index. 4.13

Param item = G12R ; retrieve measured protein stability index. 2.74

Param item = N20F ; retrieve measured protein stability index. 2.17

Param item = H23T ; retrieve measured protein stability index. 2.61

Param item = G3W ; retrieve measured protein stability index. 2.56

Param item = G9S ; retrieve measured protein stability index. 2.63

Param item = D22M ; retrieve measured protein stability index. 2.3

Param item = N24G ; retrieve measured protein stability index. 2.13

Param item = G3E ; retrieve measured protein stability index. 4.67

Param item = G12A ; retrieve measured protein stability index. 2.77

Param item = A2R ; retrieve measured protein stability index. 4.27

Param item = N24W ; retrieve measured protein stability index. 2.01

Param item = L15T ; retrieve measured protein stability index. 3.78

Param item = V10N ; retrieve measured protein stability index. 3.23

Param item = F21A ; retrieve measured protein stability index. 2.9

Param item = D18M ; retrieve measured protein stability index. 2.38

Param item = G3F ; retrieve measured protein stability index. 2.29

Param item = H11W ; retrieve measured protein stability index. 3.06

Param item = A16G ; retrieve measured protein stability index. 1.77

Param item = L17D ; retrieve measured protein stability index. 4.18

Param item = L14C ; retrieve measured protein stability index. 2.36
